assay: Human HepG2 cell viability assay in 384 well format; assay type: toxicity, cell-based; set-up: dose 125 nL, time 70.5 hour; concentration not given beside the values; conditions: HepG2 cells, read-out: Inhibition
Value type: cytotoxicity at 70.5 h (%)
Numeric only. Scale: %

[Q] May I ask what cytotoxicity at 70.5 h has been recorded for `Cc1nc(N2CCN(c3ccccc3)CC2)c2c(n1)c(C)nn2C` ?
[A] -2.17

[Q] May I ask what cytotoxicity at 70.5 h has been recorded for `c1ccc(-c2nc(CN3CCn4c(nnc4C4CC4)C3)no2)cc1` ?
[A] -9.58

[Q] May I ask what cytotoxicity at 70.5 h has been recorded for `CC(C)Nc1nc2c(cc1C(=O)N(C)C)CCNCC2` ?
[A] -6.7

[Q] May I ask what cytotoxicity at 70.5 h has been recorded for O=c1ccc2c(n1Cc1ccncc1)CCN(C1CCOC1)CC2 (centres undefined) ?
[A] 0.608
